test.method.notes: Intrinsic clearance in mouse liver microsomes up to 40 mins in presence of NADPH
Format: ADME, microsome
test.conditions: read-out: CLH
quantity.name: microsomal CLint
# number then unit; no other words

# molecule, microsomal CLint
measured = [
    ("CN1C(=O)[C@H]2CN(S(=O)(=O)c3ccc4c(c3)OCO4)C[C@H]2c2ccccc21", "2440 µL/min/mg"),
    ("CN1C(=O)[C@@H]2CN(S(=O)(=O)c3ccc4c(c3)OCO4)C[C@@H]2c2cc(O)ccc21", "499 µL/min/mg"),
    ("CN1C(=O)[C@@H]2CN(S(=O)(=O)c3ccc4ccoc4c3)C[C@@H]2c2cnccc21", "115 µL/min/mg"),
    ("CN1C(=O)[C@@H]2CN(S(=O)(=O)c3ccc4c(c3)OCO4)C[C@@H]2c2cc(F)ccc21 (racemic)", "761 µL/min/mg"),
]

Please report microsomal CLint for the following molecule: "CN1C(=O)[C@@H]2CN(S(=O)(=O)c3ccc4c(c3)OCO4)C[C@@H]2c2ncccc21"
136 µL/min/mg
